tested on: 786-0 renal; experiment: NCI-60 one-dose screen, 48 h (100 = growth as untreated, 0 = no growth, -100 = all killed); settings: 10 µM unless noted
About 83,000 compounds went through this panel and 20% of them were active in at least one assay; those are over-represented in the sample as a whole.
Reported values of growth for individual entries
Write the answer as a number in %, unit excluded.

{"COMPOUND": "O=C(CSc1nnc(-c2cc3c([nH]c4ccccc43)c(-c3cccc(O)c3)n2)n1-c1ccccc1)c1ccccc1", "READOUT_TYPE": "growth", "MEASURED": 18.8}
{"COMPOUND": "CCCCCCCC(=O)SCC/C=C/[C@@H]1CC(=O)NCc2nc(cs2)C2=N[C@@](C)(CS2)C(=O)N[C@@H](C(C)C)C(=O)N1", "READOUT_TYPE": "growth", "MEASURED": 17.2}
{"COMPOUND": "COc1cc(NC(=O)c2cc(OC)c3ccn(C)c3c2)cc2c1C[C@]1(C)CC[C@@H](O)C(C)(C)[C@H]1O2", "READOUT_TYPE": "growth", "MEASURED": -1.08}

Give growth (786-0 renal) of the following compound: COc1cc(/C=C/C(=O)N2CCC=CC2=O)cc(OC)c1OC
29.5

Next: COc1ccc2c(c1)nnc1c3cccnc3[nH]c21
-37.2

Queued: Cc1ccc2[nH]c3nc4cccnc4c(C)c3c2c1
107

# repeat for CCC1S/C(=N\N=C(/C)c2ccco2)N(c2ccccc2)C1=O (centres undefined)
96.9

Let us now turn to CC(/C=C/C=C(\C)[C@H](O)[C@H](C)C(=O)O[C@H]1C[C@H](C)C=C2C=C[C@@]3(C)O[C@@H](O)CC(=O)[C@]3(C)[C@H]21)=C\C=C\C(=O)O
1.96

----------
system: HT29 colon; assay: NCI-60 one-dose screen, 48 h; conditions: 10 µM unless noted
The panel holds about 83,000 compounds, 20% with a hit somewhere; the sample as a whole holds those more often. Activity calls are given as the source filed them. How the source made its calls: active means growth percent below 10; inactive means the rest.
Pick from active, inactive when you respond.

As a guide, the following entries are already answered.
{"MOLECULE": "CN(C)CCS(=O)(=O)Nc1cc(-c2ccc3ncnc(Nc4ccc(F)c(Cl)c4)c3c2)cnc1Cl", "ASSIGNED_LABEL": "active"}
{"MOLECULE": "O=C(Nc1cccc(-n2ccc3c(NC(=O)c4ccccc4)nccc32)c1)c1cc(N2CCOCC2)cc(C(F)(F)F)c1", "ASSIGNED_LABEL": "active"}
{"MOLECULE": "O=C1CCC(=O)N1C1CCCCC1", "ASSIGNED_LABEL": "inactive"}
{"MOLECULE": "Cc1ccc2oc(=O)cc(C3C(C#N)=C(N)Oc4c3ccc3ccccc43)c2c1 (stereo not given)", "ASSIGNED_LABEL": "inactive"}
{"MOLECULE": "O=C(CSc1nnc(-c2ccc(Cl)cc2)o1)Nc1ccc(C(=O)/C=C/c2ccccc2)cc1", "ASSIGNED_LABEL": "inactive"}

Test call, this molecule: O=C(NCCNc1nccc(-c2c(-c3cccc(O)c3)nc3sccn23)n1)c1cc(N2CCOCC2)cc(C(F)(F)F)c1
inactive

Similarly, O=c1cc(Cl)[nH]c(=O)[nH]1 ?
inactive

CC(C)(C)OC(=O)N1CC(Cn2cc(C(F)(F)F)c3c(Cl)ncnc32)C1 ?
active

Then COc1ccc(NC(=O)Nc2ccc(-c3ccc(OC)c(OC)c3)nc2C)cc1 ?
inactive

Moving on to the next molecule: CC(C)(C)NCC(O)COc1c(Br)c(Br)c(Br)c2c1OC(C)(C)C2 (stereo not given)
active

Cited source: PubChem BioAssay (NCI)
